# target: Multidrug efflux pump subunit AcrB (Escherichia coli (strain K12)) (UniProt P31224)
# Sequence (P31224 whole entry): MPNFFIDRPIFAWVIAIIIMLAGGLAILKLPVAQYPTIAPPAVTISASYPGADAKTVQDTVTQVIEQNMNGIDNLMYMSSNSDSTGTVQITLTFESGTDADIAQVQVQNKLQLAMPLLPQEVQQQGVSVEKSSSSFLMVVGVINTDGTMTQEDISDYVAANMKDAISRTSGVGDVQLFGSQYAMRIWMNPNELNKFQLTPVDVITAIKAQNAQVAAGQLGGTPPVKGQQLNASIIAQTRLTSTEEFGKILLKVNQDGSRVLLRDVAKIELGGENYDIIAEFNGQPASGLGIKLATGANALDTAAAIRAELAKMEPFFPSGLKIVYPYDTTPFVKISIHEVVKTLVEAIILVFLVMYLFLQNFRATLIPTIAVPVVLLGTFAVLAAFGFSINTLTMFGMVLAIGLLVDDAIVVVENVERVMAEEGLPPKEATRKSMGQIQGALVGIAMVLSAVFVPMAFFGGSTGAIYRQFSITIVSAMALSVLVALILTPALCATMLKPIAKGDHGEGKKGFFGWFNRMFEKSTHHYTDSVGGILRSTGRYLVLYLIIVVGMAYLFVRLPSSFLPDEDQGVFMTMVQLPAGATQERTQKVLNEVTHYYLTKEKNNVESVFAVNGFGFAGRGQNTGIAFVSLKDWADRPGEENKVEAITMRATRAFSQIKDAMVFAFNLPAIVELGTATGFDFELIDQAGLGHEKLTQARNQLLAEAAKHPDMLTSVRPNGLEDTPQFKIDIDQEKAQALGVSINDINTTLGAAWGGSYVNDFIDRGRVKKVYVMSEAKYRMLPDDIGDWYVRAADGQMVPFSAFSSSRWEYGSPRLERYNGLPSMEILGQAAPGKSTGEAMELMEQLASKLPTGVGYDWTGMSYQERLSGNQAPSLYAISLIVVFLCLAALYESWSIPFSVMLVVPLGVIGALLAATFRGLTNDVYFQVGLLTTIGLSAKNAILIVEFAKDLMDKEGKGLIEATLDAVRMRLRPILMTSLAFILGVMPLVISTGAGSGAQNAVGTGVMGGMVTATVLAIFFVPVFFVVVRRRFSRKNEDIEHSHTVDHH
# procedure-text: Inhibition of AcrB in multidrug-resistant Escherichia coli BW25113 assessed as potentiation of levofloxacin-induced antibacterial activity by measuring levofloxacin MIC at 128 ug/ml by checkerboard titration method (reference value: 0.06 ug/ml)
# test-parameters: dose 128.0 µg/ml
reported-property: MIC

Illustrative cases are given below, each with its answer.
CC1(C)CCc2c(Cn3cnnn3)cc3c(OCc4ccc(OC(F)(F)F)cc4)cccc3c2O1: 0.06 µg/mL
CC1CN(C(=O)c2cc3c(OCc4ccc(Br)cc4)cccc3c3c2CCC(C)(C)O3)CC(C)O1 (configuration not stated): 0.06 µg/mL
C[C@@H](Cc1ccc(O)c(O)c1)[C@@H](C)Cc1ccc(O)c(O)c1: 0.03 µg/mL

Look at each molecule and report its MIC.
1. CC1(C)CCc2c(-c3nnco3)cc3c(OCc4ccc(C#N)cc4)cccc3c2O1
2. CC1(C)CCc2c(C(=O)N3CCOCC3)cc3c(OCc4ccccc4)cccc3c2O1
3. COc1cccc(COc2cccc3c4c(c(C(=O)N5CCOCC5)cc23)CCC(C)(C)O4)c1
4. CC1(C)CCc2c(C(=O)O)cc3c(OCc4ccccc4)cccc3c2O1
5. CC1(C)CCc2c(-c3nnco3)cc3c(OCc4ccccc4)cccc3c2O1
6. COc1cccc(COc2cccc3c4c(c(-c5nnco5)cc23)CCC(C)(C)O4)c1

*A*
0.06 µg/mL
0.03 µg/mL
0.06 µg/mL
0.01 µg/mL
0.06 µg/mL
0.06 µg/mL
